Tested on: Human Nidogen-2
experiment.notes: Phage display library screening (Example 2, Python script analysis), binding to Human Nidogen-2
particulars: combined unique sequence count, Python/R script analysis
endpoint.name: Count

substance: WLAAGSQ (Nidogen-2-binding peptide)
system.under.test: Human Nidogen-2
endpoint.name: Count
result.number: 6
//
substance: CSSSAPRIC (Nidogen-2-binding peptide)
system.under.test: Human Nidogen-2
endpoint.name: Count
result.number: 9
//
substance: QMDAKHM (Nidogen-2-binding peptide)
system.under.test: Human Nidogen-2
endpoint.name: Count
result.number: 6
//
substance: LVHPFHG (Nidogen-2-binding peptide)
system.under.test: Human Nidogen-2
endpoint.name: Count
result.number: 8
//
substance: LSIRGLT (Nidogen-2-binding peptide)
system.under.test: Human Nidogen-2
endpoint.name: Count
result.number: 6
//
substance: CNLATSLQC (Nidogen-2-binding peptide)
system.under.test: Human Nidogen-2
endpoint.name: Count
result.number: 6
//
substance: GLRTMEP (Nidogen-2-binding peptide)
system.under.test: Human Nidogen-2
endpoint.name: Count
result.number: 7
//
substance: TIASLLV (Nidogen-2-binding peptide)
system.under.test: Human Nidogen-2
endpoint.name: Count
result.number: 6
//
substance: CIHHKGVLC (Nidogen-2-binding peptide)
system.under.test: Human Nidogen-2
endpoint.name: Count
result.number: 6
//
substance: QLLESRT (Nidogen-2-binding peptide)
system.under.test: Human Nidogen-2
endpoint.name: Count
result.number: 6
//
substance: CKDGHIRHC (Nidogen-2-binding peptide)
system.under.test: Human Nidogen-2
endpoint.name: Count
result.number: 6
//
substance: ARMAFSL (Nidogen-2-binding peptide)
system.under.test: Human Nidogen-2
endpoint.name: Count
result.number: 7
//
substance: TPWLPTI (Nidogen-2-binding peptide)
system.under.test: Human Nidogen-2
endpoint.name: Count
result.number: 7
//
substance: ATYNMSQ (Nidogen-2-binding peptide)
system.under.test: Human Nidogen-2
endpoint.name: Count
result.number: 7
//
substance: NILSQVN (Nidogen-2-binding peptide)
system.under.test: Human Nidogen-2
endpoint.name: Count
result.number: 6
//
substance: QTLRPKQ (Nidogen-2-binding peptide)
system.under.test: Human Nidogen-2
endpoint.name: Count
result.number: 6
//
substance: EAMMHRN (Nidogen-2-binding peptide)
system.under.test: Human Nidogen-2
endpoint.name: Count
result.number: 6
//
substance: LHITPEV (Nidogen-2-binding peptide)
system.under.test: Human Nidogen-2
endpoint.name: Count
result.number: 6

====

Test system: Human Myelin PLP
experiment.notes: Phage display library screening (Example 2, Python script analysis), binding to Human Myelin PLP
particulars: combined unique sequence count, Python/R script analysis
endpoint.name: Count

substance: RHNVEFS (R3 Myelin PLP-binding peptide)
system.under.test: Human Myelin PLP
result.number: 42
--
substance: NPSHHPR (R3 Myelin PLP-binding peptide)
system.under.test: Human Myelin PLP
result.number: 37
--
substance: WSPHRSF (Myelin PLP-binding peptide)
system.under.test: Human Myelin PLP
result.number: 31
--
substance: RLQPEPT (Myelin PLP-binding peptide)
system.under.test: Human Myelin PLP
result.number: 33
--
substance: VFPERRV (Myelin PLP-binding peptide)
system.under.test: Human Myelin PLP
result.number: 28
--
substance: AQASSAR (Myelin PLP-binding peptide)
system.under.test: Human Myelin PLP
result.number: 27
--
substance: RFELPAP (R3 Myelin PLP-binding peptide)
system.under.test: Human Myelin PLP
result.number: 52
--
substance: SVLPDKL (Myelin PLP-binding peptide)
system.under.test: Human Myelin PLP
result.number: 28
--
substance: YSSRLTA (Myelin PLP-binding peptide)
system.under.test: Human Myelin PLP
result.number: 29
--
substance: DGSRDLV (Myelin PLP-binding peptide)
system.under.test: Human Myelin PLP
result.number: 30
--
substance: LTHHFAP (R3 Myelin PLP-binding peptide)
system.under.test: Human Myelin PLP
result.number: 40
--
substance: TFPERLR (Myelin PLP-binding peptide)
system.under.test: Human Myelin PLP
result.number: 31
--
substance: LPVKNLL (Myelin PLP-binding peptide)
system.under.test: Human Myelin PLP
result.number: 26
--
substance: SAQSRSF (Myelin PLP-binding peptide)
system.under.test: Human Myelin PLP
result.number: 26
--
substance: GNVFQTS (Myelin PLP-binding peptide)
system.under.test: Human Myelin PLP
result.number: 31

====

Test system: excised human nerve tissue (or nerve extracts)
experiment.notes: Phage display library screening (Example 2), NEB tissue-binding peptides: nerve tissue and nerve extracts versus muscle
particulars: unique sequence count, tissue target: neuron, peptides not binding muscle extracts
Description: Phage display library screens were used to identify peptides that bind to target proteins (including specific laminin trimers) that are expressed in human nerves, as described in Table 3. These screens were also carried out to identify peptides that could bind selectively to nerves versus muscle. Such peptides could therefore be useful for systemic in-vivo labeling of nerves during fluorescence assisted surgery. […]
endpoint.name: Count Neuron

residue.sequence: EPWQSRDKVIEE
endpoint.name: Count Neuron
result.number: 8
//
residue.sequence: TLNARDQLSING (nerve-binding peptide)
endpoint.name: Count Neuron
result.number: 6
//
residue.sequence: TDNGSFLGKLTS
endpoint.name: Count Neuron
result.number: 7
//
residue.sequence: RTVITNEMLLLV
endpoint.name: Count Neuron
result.number: 6
//
residue.sequence: SLQLWNSEKVTT
endpoint.name: Count Neuron
result.number: 6
//
residue.sequence: SLGSSFVQGGEL
endpoint.name: Count Neuron
result.number: 7
//
residue.sequence: TEWMVRASSIGE
endpoint.name: Count Neuron
result.number: 8
//
residue.sequence: VESGHAYSVSSW
endpoint.name: Count Neuron
result.number: 6
//
residue.sequence: WEKHTGPLSRYL
endpoint.name: Count Neuron
result.number: 13
//
residue.sequence: DRGLTILTDDLR
endpoint.name: Count Neuron
result.number: 7
//
residue.sequence: VRSDMVSGGLQK
endpoint.name: Count Neuron
result.number: 6
//
residue.sequence: VNYQTPWNKHWY
endpoint.name: Count Neuron
result.number: 11
//
residue.sequence: SGWHLVMSMSIG
endpoint.name: Count Neuron
result.number: 6
//
residue.sequence: VRLPMLASMGHQ
endpoint.name: Count Neuron
result.number: 21
//
residue.sequence: YAWDTVASRNYK
endpoint.name: Count Neuron
result.number: 6
//
residue.sequence: GWQMFPPMQNTR
endpoint.name: Count Neuron
result.number: 40
//
residue.sequence: AIMSYNSPWIQG
endpoint.name: Count Neuron
result.number: 8
//
residue.sequence: SEPIEKGSRTIV
endpoint.name: Count Neuron
result.number: 6

====

Test system: excised human nerve tissue (or nerve extracts)
experiment.notes: Phage display library screening (Example 2), NEB tissue-binding peptides: nerve tissue and nerve extracts versus muscle
particulars: unique sequence count, tissue target: nerve extract, peptides not binding muscle extracts
# key: entry, value: Count Nerve Extract

residue.sequence: QSTLGVHMLRVS
system.under.test: excised human nerve tissue (or nerve extracts)
Count Nerve Extract: 13

residue.sequence: QANLYYWDPSDL
system.under.test: excised human nerve tissue (or nerve extracts)
Count Nerve Extract: 17

residue.sequence: VRSDMVSGGLQK
system.under.test: excised human nerve tissue (or nerve extracts)
Count Nerve Extract: 20

residue.sequence: DRGLTILTDDLR
system.under.test: excised human nerve tissue (or nerve extracts)
Count Nerve Extract: 34

residue.sequence: EMVPMKFLMMAK
system.under.test: excised human nerve tissue (or nerve extracts)
Count Nerve Extract: 14

residue.sequence: SPMANVWFNRLS
system.under.test: excised human nerve tissue (or nerve extracts)
Count Nerve Extract: 17

residue.sequence: RTVITNEMLLLV
system.under.test: excised human nerve tissue (or nerve extracts)
Count Nerve Extract: 13

====

Tested on: Laminin 421/521
experiment.notes: Phage display library screening (Example 2), NEB laminin-binding peptides
Design: species or system human
particulars: Laminin 421/521, not 211 and 411; combined unique sequence count, Python/R script analysis
If the reported Count equals or exceeds 30, assign satisfied. If not, assign not satisfied.

substance: QGWKDRLPIWRY (Laminin 421/521-binding peptide)
system.under.test: Laminin 421/521
assigned.class: not satisfied
//
substance: GYRSFIHENWSI (Laminin 421/521-binding peptide)
system.under.test: Laminin 421/521
assigned.class: satisfied
//
substance: SDRGKTVLHGQI (Laminin 421/521-binding peptide)
system.under.test: Laminin 421/521
assigned.class: satisfied
//
substance: TFGSGRSMPIQY (Laminin 421/521-binding peptide)
system.under.test: Laminin 421/521
assigned.class: satisfied
//
substance: QPTPSQIKFTRT (Laminin 421/521-binding peptide)
system.under.test: Laminin 421/521
assigned.class: not satisfied
//
substance: SYDGTMLKQVRL (Laminin 421/521-binding peptide)
system.under.test: Laminin 421/521
assigned.class: satisfied
//
substance: SVESNSKLTMPR (Laminin 421/521-binding peptide)
system.under.test: Laminin 421/521
assigned.class: not satisfied
//
substance: APKVTNARPTQL (Laminin 421/521-binding peptide)
system.under.test: Laminin 421/521
assigned.class: satisfied
//
substance: HQSLAGVPWSRH (Laminin 421/521-binding peptide)
system.under.test: Laminin 421/521
assigned.class: satisfied
//
substance: SWQMRSY (Laminin 421/521-binding peptide)
system.under.test: Laminin 421/521
assigned.class: satisfied
//
substance: DRMYSTVPAEGL (Laminin 421/521-binding peptide)
system.under.test: Laminin 421/521
assigned.class: not satisfied
//
substance: ADMPQMTLKYGV (Laminin 421/521-binding peptide)
system.under.test: Laminin 421/521
assigned.class: satisfied
//
substance: VVPSWPSVHRPP (Laminin 421/521-binding peptide)
system.under.test: Laminin 421/521
assigned.class: satisfied
//
substance: CSVWNSGNC (Laminin 421/521-binding peptide)
system.under.test: Laminin 421/521
assigned.class: satisfied
//
substance: WEEHRVEILPDV (Laminin 421/521-binding peptide)
system.under.test: Laminin 421/521
assigned.class: satisfied
//
substance: GDLWNVP (Laminin 421/521-binding peptide)
system.under.test: Laminin 421/521
assigned.class: satisfied
//
substance: CMNKIQRDC (Laminin 421/521-binding peptide)
system.under.test: Laminin 421/521
assigned.class: satisfied
//
substance: VIADQSKSAVAV (Laminin 421/521-binding peptide)
system.under.test: Laminin 421/521
assigned.class: not satisfied
//
substance: EYVKFSHSPRTY (Laminin 421/521-binding peptide)
system.under.test: Laminin 421/521
assigned.class: satisfied
//
substance: CLNQKWEAC (Laminin 421/521-binding peptide)
system.under.test: Laminin 421/521
assigned.class: satisfied
//
substance: LGHQNGGRADMW (Laminin 421/521-binding peptide)
system.under.test: Laminin 421/521
assigned.class: satisfied
//
substance: WTKHNTPAHHLS (Laminin 421/521-binding peptide)
system.under.test: Laminin 421/521
assigned.class: satisfied
//
substance: TVARSTAQERSI (Laminin 421/521-binding peptide)
system.under.test: Laminin 421/521
assigned.class: not satisfied
//
substance: GPMLKNLSDAVT (Laminin 421/521-binding peptide)
system.under.test: Laminin 421/521
assigned.class: satisfied
